test.system: Protoporphyrinogen IX oxidase (Zea mays, UniProt Q9FYV8)
Sequence (Q9FYV8 whole entry): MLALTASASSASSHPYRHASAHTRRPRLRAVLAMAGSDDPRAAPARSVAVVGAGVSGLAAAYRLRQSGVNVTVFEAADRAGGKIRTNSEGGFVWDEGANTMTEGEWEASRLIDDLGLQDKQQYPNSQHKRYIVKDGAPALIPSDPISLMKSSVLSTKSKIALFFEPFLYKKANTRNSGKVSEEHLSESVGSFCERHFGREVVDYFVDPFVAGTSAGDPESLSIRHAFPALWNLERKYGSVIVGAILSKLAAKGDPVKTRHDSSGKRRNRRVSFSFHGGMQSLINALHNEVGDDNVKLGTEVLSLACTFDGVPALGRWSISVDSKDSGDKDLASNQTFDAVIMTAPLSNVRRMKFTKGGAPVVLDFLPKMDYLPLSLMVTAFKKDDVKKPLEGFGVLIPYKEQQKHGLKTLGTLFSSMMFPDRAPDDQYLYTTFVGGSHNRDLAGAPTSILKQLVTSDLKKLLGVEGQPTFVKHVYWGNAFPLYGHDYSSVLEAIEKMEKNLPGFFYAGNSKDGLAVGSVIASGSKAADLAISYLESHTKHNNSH
test.method.notes: Inhibition of protoporphyrinogen IX oxidase in Zea mays (maize) seed after 5 min by Dixon plot analysis
run.parameters: read-out: pI50 (converted)
readout.name: IC50 (nM)
Response body: numeric value in nM, unit text excluded.

See these solved cases before continuing.
CC(C)=C1OC(=O)N(c2cc(OC3CCCC3)c(Cl)cc2F)C1=O
5.25
O=C1C2=C(CCCC2)C(=O)N1c1ccccc1
1580
C#CC(C)Oc1cc(N2C(=O)C3=C(CCCC3)C2=O)c(F)cc1Cl (centres undefined)
1
C#CCOc1cc(N2C(=O)C3=C(CCCC3)C2=O)ccc1Cl
0.398
O=C1C2=C(CCCC2)C(=O)N1c1ccccc1F
2510

IC50 lookup needed for "C#CCOc1cc(N2C(=O)C3=C(CCCC3)C2=O)c(F)cc1Cl" , thanks. 2

// query: "O=C1C2=C(CCCC2)C(=O)N1c1ccc(Cl)cc1F" 3.98

// query: "CC(C)OC(=O)c1cc(N2C(=O)C3=C(CCCC3)C2=O)ccc1Cl" 1

// query: "COC(=O)CSc1cc(/N=c2\sc(=O)n3n2CCCC3)c(F)cc1Cl" 47.9

// query: "C#CCN1C(=O)COc2ccc(N3C(=O)C4=C(CCCC4)C3=O)cc21" 1

// query: "CC(C)OC(=O)c1cc(N2C(=O)C3=C(CCCC3)C2=O)c(F)cc1Cl" 1.26

// query: "O=C1C2=C(CCCC2)C(=O)N1c1ccc(Cl)cc1" 25.1

// query: "CCCCCOC(=O)COc1cc(N2C(=O)C3=C(CCCC3)C2=O)c(F)cc1Cl" 1.1

// query: "C#CCOc1cc(-n2nc3c(c2Cl)CCCC3)c(F)cc1Cl" 1

Origin of measurements: ChEMBL document CHEMBL3046049
